- assayTarget: Cath B (Homo sapiens, UniProt P07858)
Peptide text beside a SMILES is read from it. * marks the point of attachment. Agmatine = N=C(N)NCCCCN*; BrAc = O=C(CBr)*; ClAc = O=C(CCl)*
readoutName: pKi
Interpret pKi as the negative base-10 log of the concentration measured in mol/L.

>  <molecule>
CC(C)CC(NC(=O)C(NC(=O)/C=C/C(=O)c1ccccc1)C(C)C)C(=O)NCCCCNC(=N)N (stereo not drawn) [A-33, Bzac-Val-Leu-Agm]

>  <pKi>
8.70

$$$$
>  <molecule>
CCC(C)C(NC(=O)/C=C/S(=O)(=O)Cc1ccccc1)C(=O)N1CCCC1C(=O)O (stereo not drawn) [M-1, Bzsa-Ile-Pro-OH]

>  <pKi>
8.52

$$$$
>  <molecule>
CC(C)CC(NC(=O)C(NC(=O)C1OC1C(=O)c1ccccc1)C(C)C)C(=O)NCCCCNC(=N)N (single isomer, unassigned) [A-47]

>  <pKi>
9.52

$$$$
>  <molecule>
CC(C)CC(NC(=O)C(NC(=O)CCl)C(C)C)C(=O)NCCCCNC(=N)N (stereo not drawn) [A-11, ClAc—Val-Leu-Agm] (ClAc-Val-Leu-Agmatine; configuration not given here)

>  <pKi>
6.44

$$$$
>  <molecule>
CC(C)CC(NC(=O)C(NC(=O)CBr)C(C)C)C(=O)NCCCCNC(=N)N (stereo not drawn) [A-12, BrAc—Val-Leu-Agm] (BrAc-Val-Leu-Agmatine; configuration not given here)

>  <pKi>
6.00

$$$$

Indicate its recorded pKi; the molecule in question is CC(C)CC(NC(=O)C(NC(=O)/C=C/S(=O)(=O)Cc1ccccc1)C(C)C)C(=O)NCCCCNC(=N)N (stereo not drawn) [A-25, Bzsa-Val-Leu-Agm]
8.09
